Entries and their measured cell viability follow.
Tested on: SEM cells
Assay method text: cell viability relative to DMSO control; higher = less cytotoxic
Run conditions: RPMI 5 mM glucose + 10% dialyzed FBS; 48 h; 0.569 µM
Give the number; % is assumed, so skip it.

# count of solved cases: 2
>>> test_result("CN(c1ncccc1CNc1nc(Nc2ccc3c(c2)CC(=O)N3)ncc1C(F)(F)F)[S+](C)(=O)[O-]")
111
>>> test_result("Nc1ccccc1NC(=O)c1ccc(CNC(=O)OCc2cccnc2)cc1")
76.3

Please turn your attention to the following entry.
Req: Can you look up the measured cell viability of C/C=C/C[C@@H](C)C(=O)[C@H]1C(=O)N[C@@H](C(C)C)C(=O)N(C)CC(=O)N(C)[C@@H](CC(C)C)C(=O)N[C@@H](C(C)C)C(=O)N(C)[C@@H](CC(C)C)C(=O)N[C@@H](C)C(=O)N[C@H](C)C(=O)N(C)[C@@H](CC(C)C)C(=O)N(C)[C@@H](CC(C)C)C(=O)N(C)[C@@H](C(C)C)C(=O)N1C for me?
Resp: 123
